These data points were gathered from ChEMBL document CHEMBL1127353.

# System: Neutrophil elastase (Homo sapiens, UniProt P08246)
# Sequence (P08246 whole entry): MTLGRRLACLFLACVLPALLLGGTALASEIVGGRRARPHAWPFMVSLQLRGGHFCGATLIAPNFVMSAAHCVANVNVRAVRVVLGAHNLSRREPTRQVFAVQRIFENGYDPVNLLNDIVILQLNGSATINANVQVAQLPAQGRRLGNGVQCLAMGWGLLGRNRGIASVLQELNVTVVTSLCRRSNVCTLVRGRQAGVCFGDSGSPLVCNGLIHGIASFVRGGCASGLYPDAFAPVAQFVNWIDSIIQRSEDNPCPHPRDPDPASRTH
# Assay Summary: Tested for inhibitory activity against human leukocyte elastase(HLE) enzyme
pKi: −log10 of the molar value.
Measured Property: pKi

| Molecule | pKi |
| --- | --- |
| CC(C)C(NC(=O)Cn1c(-c2ccc(Cl)cc2)ccc(NC(=O)OCc2ccccc2)c1=O)C(=O)C(F)(F)F (stereo not drawn) | 8.18 |
| CC(C)C(NC(=O)Cn1c(Cc2ccccc2)ccc(NC(=O)OCc2ccccc2)c1=O)C(=O)C(F)(F)F (stereo not drawn) | 7.18 |
| CC(C)C(NC(=O)Cn1c(-c2cccc(OC(C)(C)C)c2)ccc(NC(=O)OCc2ccccc2)c1=O)C(=O)C(F)(F)F (stereo not drawn) | 8.36 |

P. Cc1ccc(-c2ccc(NC(=O)OCc3ccccc3)c(=O)n2CC(=O)NC(C(=O)C(F)(F)F)C(C)C)cc1 (stereo not drawn)
Q. CC(C)C(NC(=O)Cn1ccc(-c2ccccc2)c(NC(=O)OCc2ccccc2)c1=O)C(=O)C(F)(F)F (stereo not drawn)
Which has the higher pKi, P or Q ? Write down the label of the entry you select. P

====

# System: Neutrophil elastase (Homo sapiens, UniProt P08246)
# Assay Summary: Tested for inhibitory activity against human leukocyte elastase(HLE) enzyme
Measured Property: Ki (nM)

| Compound | Measured Property | Number |
| --- | --- | --- |
| CC(C)C(NC(=O)Cn1c(-c2ccccc2Cl)ccc(NC(=O)OCc2ccccc2)c1=O)C(=O)C(F)(F)F (stereo not drawn) | Ki | 11 |

1. CC(C)C(NC(=O)Cn1c(-c2cccc(C(=O)O)c2)ccc(NC(=O)OCc2ccccc2)c1=O)C(=O)C(F)(F)F (stereo not drawn)
2. CC(C)C(NC(=O)Cn1c(-c2cccnc2)ccc(NC(=O)OCc2ccccc2)c1=O)C(=O)C(F)(F)F (stereo not drawn)
Could you tell me which of 1 and 2 has the lower Ki reading? Field: selected label. Fill in the label of the entry you choose. 2
(2: 9.1 nM, 1: 32 nM)
